System: NCI/ADR-RES ovarian
ASSAY_TEXT: NCI tumour cell line growth inhibition, 48 h; in the data active = GI50 below about 0.43 µM; inactive = the rest
Possible outcomes: Y for active, N for inactive

In [3]: df
Out[3]:
                                   compound  cat
0                     Nc1cc2ccncc2c2ccccc12    N
1  CCN1CCN(c2nc(NNC(=O)c3cccc(OC)c3)nc(N3CCN(C(c4ccccc4)c4ccccc4)CC3)n2)CC1    N
2     c1ccc2c(Nc3ccc4c(c3)OCO4)c3ccoc3nc2c1    N
3  NC(=S)c1cn(C2OC(CO)C(O)C2O)c2ncnc(N)c12 (stereo unspecified)    Y
4   O=C1c2ccccc2-c2c1c1ccccc1c(=O)n2CCCNCCO    N
5    COc1ccc(OC)c(/C=C/C(=O)c2ccc(SC)cc2)c1    N

src = PubChem BioAssay (NCI)
